Target: 5-hydroxytryptamine receptor 2C (Homo sapiens, UniProt P28335)
Sequence (P28335 whole entry): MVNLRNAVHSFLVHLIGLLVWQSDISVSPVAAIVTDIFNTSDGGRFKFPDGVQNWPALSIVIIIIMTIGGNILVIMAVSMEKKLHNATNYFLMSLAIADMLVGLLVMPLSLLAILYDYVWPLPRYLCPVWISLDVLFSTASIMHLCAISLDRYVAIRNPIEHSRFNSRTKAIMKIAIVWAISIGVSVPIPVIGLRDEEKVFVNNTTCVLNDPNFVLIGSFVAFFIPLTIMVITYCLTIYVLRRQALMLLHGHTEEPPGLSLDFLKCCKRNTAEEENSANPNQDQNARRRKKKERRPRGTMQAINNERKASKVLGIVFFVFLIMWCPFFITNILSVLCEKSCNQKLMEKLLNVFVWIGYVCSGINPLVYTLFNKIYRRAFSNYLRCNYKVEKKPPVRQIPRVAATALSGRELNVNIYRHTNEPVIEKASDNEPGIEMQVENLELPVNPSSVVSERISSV
Test: Binding affinity to 5-HT2C (unknown origin) assessed as inhibition constant by liquid scintillation counter analysis
metric.name: pKi
As a rule, pKi stands for the negative log10 of the concentration, concentration in M.

State the measured pKi (5-hydroxytryptamine receptor 2C (Homo sapiens, UniProt P28335)) of COc1cc(CCNCc2ccccc2OC)c(OC)cc1I 8.15
